Molecular target: T1, human CD3e/g (human, UniProt P07766 23-126; P09693 23-116)
T1 construct: Bought soluble protein; also called hCD3e/g; human CD3e/g (Acro CDD-C52W4)
T1 sequence (P07766 23-126, chain 1 of 2): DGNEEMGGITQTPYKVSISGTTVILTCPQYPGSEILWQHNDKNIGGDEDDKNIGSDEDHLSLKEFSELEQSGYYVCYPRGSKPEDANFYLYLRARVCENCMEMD
T1 sequence (P09693 23-116, chain 2 of 2): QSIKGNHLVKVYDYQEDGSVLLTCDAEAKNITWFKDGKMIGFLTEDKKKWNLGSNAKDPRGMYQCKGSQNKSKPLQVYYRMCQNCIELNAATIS
Assay: SPR (Carterra LSA), mAb on chip
quantity-measured: Kd (nM)

binder="mAb 129 (antibody, V domains shown, VH and VL only) VH: EVQLVESGGDLVKTGGSLRLSCVASGFSFKKAWMNWVRQAPGKGLEWVGRIKRNTDGGATDYAAPVKDRFTLSRDDSKNTLYLQMNSLKTEDTAVYYCTTLDSSSWYVGYYYMDVWGKGTTVTVSS VL: DIHMTQSPSSVSASLGDRVTFTCRASQDINNWLAWYQQKPGKAPRLLIYTASSLQSGVPSRFSGSGSGTDFTLTISSLQPDDFATYYCQQAHSLPITFGQGTRLGIE" measurement=6.62
binder="mAb 42 (antibody, V domains shown, VH and VL only) VH: QAQLVQSGSELKKPGASVKVSCKASGYTFTKHSMNWVRQAPGQGLEWMGWINTNTGNPTYAQGFTGRFVFSLDTSVTTAYLQISSLKAEDTAVYYCAREGDYDFWSGFFNFDYWGQGTLVTVSS VL: DIQMTQSPSSLSASVGDRVTITCRASQGIRNDLGWYQQKPGKAPKRLIYAASSLQSGVPSRFSGSGSGAEFTLTISSLQPEDFATYYCLQHNSYPRTFGQGTKVEIK" measurement=19.4
binder="mAb 114 (antibody, V domains shown, VH and VL only) VH: EVQLVESGGGLVKTGGSLRLSCVASGFSFKKAWMNWVRQAPGKGLEWVGRIKRNTDGGPADYAAPVKGRFTLSRDDSKKTLYLQMNSLKTEDTAVYYCTTLDSSSWYVGYYYMDVWGKGTTVTVSS VL: DIQMTQSPSSVSASVGDRVIITCRASQDINNWLAWYLQRPGKAPKLLIYAASSLQSGVPSRFSGSGSGTDFTLTIGSLQPEDFATYYCQQAHSLPITFGQGTRLEIQ" measurement=18.9
binder="mAb 46 (antibody, V domains shown, VH and VL only) VH: EGQLVESGGGLVQPGGSLRLSCVASGFTLSSYTLNWVRQAPGKGLEWVSYISSTSRTIYYSDSVKGRFTISRDNAKNSLYLQMNSLRDEDTALYYCAREDYYDSSGFDYWGQGTLVTVSS VL: AIRMTQSPSSFSASTGDRVTITCRASQGISSYLAWYQQKPGKAPKLLIYTASTLQSGVPSRFSGSGSGTDFTLTIRSLQSEDFATYYCQQYYSYPRTFGQGTKVEIK" measurement=98.4
binder="mAb 220 (antibody, V domains shown, VH and VL only) VH: QEQLVESGGGVVQPGGSLRLSCVASGFTFSGYGMHWVRQAPGKGLEWVAIIWYNGRKTYYAESVKGRFTISRDNSKNTLSLQMNSLRVEDTAVYYCTTGKGYNWFDPWGQGTLVTVSS VL: EIVMTQSPATLSVSPGERATLSCRASQSVSSNLAWYQQKPGQAPRLLIYGASTRATGIPARFSGSGSGTEFTLTISSLQSEDFAVYYCQQFNAWPLTFGGGTKMEIK" measurement=11
